As a worked illustration, we turn to Ki data collected for rRNA adenine N-6-methyltransferase (Bacillus subtilis).
Please reply with the bare figure in µM and do not write the unit itself.

>  <molecule>
Nc1nc(NC2Cc3ccc(F)cc3C2)nc(N2CCCCC2)n1 (stereo unspecified)

>  <tested system>
rRNA adenine N-6-methyltransferase (Bacillus subtilis)
Sequence (P13956 whole entry): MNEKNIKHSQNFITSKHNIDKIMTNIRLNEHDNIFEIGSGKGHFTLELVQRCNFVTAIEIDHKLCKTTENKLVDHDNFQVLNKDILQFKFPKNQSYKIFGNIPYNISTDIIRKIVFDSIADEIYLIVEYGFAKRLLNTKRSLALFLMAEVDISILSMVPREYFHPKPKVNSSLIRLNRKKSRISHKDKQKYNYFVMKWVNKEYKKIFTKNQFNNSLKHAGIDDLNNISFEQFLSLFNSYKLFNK

>  <Ki, µM>
37

$$$$
>  <molecule>
Nc1nc(NC2Cc3ccccc3C2)nc(N2CCC(C(=O)NCCc3c[nH]c4ccccc34)CC2)n1

>  <tested system>
rRNA adenine N-6-methyltransferase (Bacillus subtilis)

>  <Ki, µM>
20

$$$$
>  <molecule>
COc1ccc2c(c1)CC(Nc1nc(N)nc(N3CCCCC3)n1)C2 (stereo unspecified)

>  <tested system>
rRNA adenine N-6-methyltransferase (Bacillus subtilis)

>  <Ki, µM>
75

$$$$

response.value for Nc1nc(NC2Cc3ccccc3C2)nc(N2CCCCC2)n1 (field: Ki) = 75

response.value for Nc1nc(NC2Cc3ccccc3C2)cc(-c2ccc(NCCCc3ccccc3O)cc2)n1 (field: Ki) = 12.5

response.value for Nc1cccc(-c2nc(N)nc(NC3Cc4ccccc4C3)n2)c1 (field: Ki) = 10

response.value for Nc1nc(NC2Cc3ccccc3C2)nc(N2CCC(CO)CC2)n1 (field: Ki) = 75
